pIC50 reference
- target-or-test-system: Phosphatidylinositol 4-phosphate 3-kinase C2 domain-containing subunit beta (Homo sapiens, UniProt O00750)
- Sequence (O00750 whole entry, the tested form may be a part): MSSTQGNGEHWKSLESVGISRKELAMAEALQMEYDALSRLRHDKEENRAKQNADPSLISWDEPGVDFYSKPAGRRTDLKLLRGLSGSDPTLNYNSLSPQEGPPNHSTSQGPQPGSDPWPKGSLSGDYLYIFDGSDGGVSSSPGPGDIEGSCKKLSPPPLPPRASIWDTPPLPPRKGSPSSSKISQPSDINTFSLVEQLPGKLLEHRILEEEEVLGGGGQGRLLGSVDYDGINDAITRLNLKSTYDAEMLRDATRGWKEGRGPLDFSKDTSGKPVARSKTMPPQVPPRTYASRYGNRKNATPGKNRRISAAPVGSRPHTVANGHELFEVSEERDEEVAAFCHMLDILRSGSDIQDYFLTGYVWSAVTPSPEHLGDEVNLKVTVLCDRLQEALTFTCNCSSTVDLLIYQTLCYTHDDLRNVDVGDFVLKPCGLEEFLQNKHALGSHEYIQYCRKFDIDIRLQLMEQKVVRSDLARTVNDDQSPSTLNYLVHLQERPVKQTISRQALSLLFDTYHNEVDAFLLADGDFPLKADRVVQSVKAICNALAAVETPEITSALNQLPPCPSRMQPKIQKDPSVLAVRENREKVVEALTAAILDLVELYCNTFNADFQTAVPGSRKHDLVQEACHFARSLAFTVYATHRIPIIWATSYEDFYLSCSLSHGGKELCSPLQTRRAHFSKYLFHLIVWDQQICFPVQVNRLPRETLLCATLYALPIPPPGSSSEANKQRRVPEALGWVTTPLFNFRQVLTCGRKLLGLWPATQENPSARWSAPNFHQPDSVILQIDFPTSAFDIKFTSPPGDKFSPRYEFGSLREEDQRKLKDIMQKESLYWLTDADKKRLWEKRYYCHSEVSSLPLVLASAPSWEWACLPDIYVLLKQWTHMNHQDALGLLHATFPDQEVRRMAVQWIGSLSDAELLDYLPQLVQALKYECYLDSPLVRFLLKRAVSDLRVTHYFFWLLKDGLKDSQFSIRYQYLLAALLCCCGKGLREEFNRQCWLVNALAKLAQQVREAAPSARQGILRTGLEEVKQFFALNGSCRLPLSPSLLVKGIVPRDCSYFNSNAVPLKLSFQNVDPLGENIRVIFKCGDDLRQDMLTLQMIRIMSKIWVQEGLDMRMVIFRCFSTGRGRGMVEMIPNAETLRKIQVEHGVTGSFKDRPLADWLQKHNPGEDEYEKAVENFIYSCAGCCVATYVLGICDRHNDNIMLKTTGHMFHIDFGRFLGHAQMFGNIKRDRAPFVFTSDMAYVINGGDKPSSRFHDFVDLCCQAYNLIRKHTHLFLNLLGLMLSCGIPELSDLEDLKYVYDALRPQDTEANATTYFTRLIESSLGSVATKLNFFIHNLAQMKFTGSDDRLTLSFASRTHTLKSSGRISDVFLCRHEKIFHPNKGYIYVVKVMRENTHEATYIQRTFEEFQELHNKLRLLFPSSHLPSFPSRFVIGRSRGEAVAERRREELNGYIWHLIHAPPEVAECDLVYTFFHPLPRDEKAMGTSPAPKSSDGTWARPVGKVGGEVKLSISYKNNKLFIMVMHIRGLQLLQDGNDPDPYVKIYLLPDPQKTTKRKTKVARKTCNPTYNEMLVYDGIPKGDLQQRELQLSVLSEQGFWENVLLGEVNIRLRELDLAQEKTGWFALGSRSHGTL
- assay-method-text: Inhibition of human PIK3C2beta by ADP-Glo kinase assay
pIC50: −log10 of the molar value.
metric-name: pIC50

mol=CNC(=O)c1ccc(-c2cnc3cnc(C(=O)N(C)c4ccc(Cl)cc4)cn23)cc1 result="< 5.00"
mol=CNC(=O)c1cncc(-c2cnc(Cl)c(NS(=O)(=O)c3ccccc3)c2)c1 result="< 5.00"

----------
- assay-method-text: Apparent volume of distribution in mouse at 1 mg/kg, iv
- Format: ADME, organism-based
- condition-summary: in vivo, read-out: Vz
metric-name: Vd

mol=CNC(=O)c1cncc(-c2cnc(Cl)c(NS(=O)(=O)c3ccccc3)c2)c1 result="12.1 L/kg"

Where do the numbers come from? From ChEMBL document CHEMBL4680147.
